The reported numbers originate from ChEMBL document CHEMBL2218924.

Molecular target: Serine/threonine-protein kinase Chk1 (Homo sapiens)
Sequence (whole entry): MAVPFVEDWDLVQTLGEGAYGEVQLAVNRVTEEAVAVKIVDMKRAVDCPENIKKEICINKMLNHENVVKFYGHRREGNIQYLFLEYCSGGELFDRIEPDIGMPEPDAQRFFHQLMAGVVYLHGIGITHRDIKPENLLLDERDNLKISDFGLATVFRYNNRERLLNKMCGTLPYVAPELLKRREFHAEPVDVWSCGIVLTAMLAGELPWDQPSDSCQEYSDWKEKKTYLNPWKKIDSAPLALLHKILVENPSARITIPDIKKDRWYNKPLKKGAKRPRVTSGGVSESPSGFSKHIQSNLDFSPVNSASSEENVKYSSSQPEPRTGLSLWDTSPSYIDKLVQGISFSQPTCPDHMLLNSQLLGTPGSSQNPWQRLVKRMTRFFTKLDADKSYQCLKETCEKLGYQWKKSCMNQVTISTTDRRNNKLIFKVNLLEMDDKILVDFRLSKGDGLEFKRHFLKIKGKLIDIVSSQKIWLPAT
Details: at 1 µM
Give measured residual activity for each item. Keep answers brief.
State the value, then name its unit.

Enquiry: Any idea what residual activity came out for Cc1cccc(-c2[nH]c(C(C)(C)C)nc2-c2ccc3c(c2)OCO3)n1 on Serine/threonine-protein kinase Chk1 (Homo sapiens)?
Return: 88%

Enquiry: // query: CCN(CC)C(=O)c1ccc(Nc2nc(OCC3CCCCC3)c3nc[nH]c3n2)cc1
Return: 57%

Enquiry: Same question for Ic1cccc(CSc2nnc(-c3ccncc3)o2)c1 please.
Return: 57%

Enquiry: Next entry: O=C1c2ccccc2-[n+]2ccc3c([nH]c4ccccc43)c21
Return: 94%
